Cited source: patent US6951856B2

target: human recombinant ETA receptors (Homo sapiens)
Sequence (P25101 21-427): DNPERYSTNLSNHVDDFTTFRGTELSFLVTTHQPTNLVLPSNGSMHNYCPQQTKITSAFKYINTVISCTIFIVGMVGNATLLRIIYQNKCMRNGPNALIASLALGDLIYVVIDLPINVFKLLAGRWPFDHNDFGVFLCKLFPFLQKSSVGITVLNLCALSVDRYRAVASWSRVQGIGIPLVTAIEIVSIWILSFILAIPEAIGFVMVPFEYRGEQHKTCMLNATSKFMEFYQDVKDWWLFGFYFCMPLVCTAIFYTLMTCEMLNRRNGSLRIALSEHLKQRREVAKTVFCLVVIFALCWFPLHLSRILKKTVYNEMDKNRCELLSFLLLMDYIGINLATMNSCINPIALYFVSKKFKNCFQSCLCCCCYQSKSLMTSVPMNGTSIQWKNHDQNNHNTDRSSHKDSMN
assay_notes: Inhibition of [125I]ET-1 binding to membranes from CHO cells carrying human ETA receptors
cond: CHO cell membranes, 8 pM [125I]ET-1, 2 h at 20° C.
Each record here notes measured IC50.
Please give a number only; it is taken to be in nM.

Challenge: Field request: IC50 | item: COc1ccccc1Oc1c(NS(=O)(=O)/C=C/c2ccccc2)nc(N2CCOCC2)nc1OCCOc1ncccn1
Response given: 7.8

Challenge: Query: IC50; subject: Cc1ccc(-c2c(NS(=O)(=O)/C=C/c3cccs3)ncnc2OCCOc2ncc(Br)cn2)cc1
Response given: 7.8

Challenge: So what's the measured IC50 for this one? COc1ccccc1Oc1c(NS(=O)(=O)/C=C/c2ccsc2)nc(-c2ccncc2)nc1OCCOc1ncc(Cl)cn1
Response given: 7.1

Challenge: Reported IC50, compound CSc1cnc(OCCOc2ncnc(NS(=O)(=O)/C=C/c3ccccc3)c2-c2ccc(Cl)cc2)nc1 : ____
Response given: 4.56
